target: HIV-1 integrase wild-type (IN1-288) (HIV-1, UniProt P12497 P12497:1148-1435); experiment: inhibition; first activity column (headed strand transfer); other column 0.013; details: G4, loop 2 inverted
readoutType: pIC50
Scale explanation: pIC50 corresponds to minus log10 of a concentration expressed in moles per litre.

Lab note: GTGGTGGGGTGGTGGGT (ssDNA, PS at first and last linkages) [T30697] gave pIC50 of 6.89
